Here, each record is paired with measured IC50 data.
- System: GP2d cells (KRAS G12D)
- method: Cell-based pERK HTRF assay in GP2d cell (Biological Example 2)
- conditions used: GP2d, GP2d (KRAS G12D) cells, pERK HTRF

Solved cases below.
>>> result("C[C@@H]1[C@H](N(C)c2nc(OC[C@@]34CCCN3C[C@H](F)C4)nc3c(F)c(-c4ccc(F)c5sc(N)c(C#N)c45)c(C(F)(F)F)cc23)CCN1C(=O)C(C)(F)F")
"< 100 nM"
>>> result("CN(c1nc(OC[C@@]23CCCN2C[C@H](F)C3)nc2c(F)c(-c3ccc(F)c4sc(N)c(C#N)c34)c(C(F)(F)F)cc12)[C@H]1CCC[C@@H]1CO")
"< 100 nM"
>>> result("CN(c1nc(OC[C@@]23CCCN2C[C@H](F)C3)nc2c(F)c(-c3ccc(F)c4sc(N)c(C#N)c34)c(C(F)(F)F)cc12)[C@H]1C[C@@H](O)C1 [Compound 18]")
"< 100 nM"
>>> result("CC(=O)N1CCC(N(C)c2nc(OC[C@@]34CCCN3C[C@H](F)C4)nc3c(F)c(-c4ccc(F)c5sc(N)c(C#N)c45)c(C(F)(F)F)cc23)CC1")
"< 100 nM"

What value of IC50 has been recorded for this entry: `N#Cc1c(N)sc2c(F)ccc(-c3c(C(F)(F)F)cc4c(N5CCC(CO)CC5)nc(OC[C@@]56CCCN5C[C@H](F)C6)nc4c3F)c12`
< 100 nM

Next entry: `N#Cc1c(N)sc2c(F)ccc(-c3c(C(F)(F)F)cc4c(N5CCn6nc(C(=O)N7CC[C@H](O)C7)cc6C5)nc(OC[C@@]56CCCN5C[C@H](F)C6)nc4c3F)c12`
< 100 nM

Next entry: `N#Cc1c(N)sc2c(F)ccc(-c3c(C(F)(F)F)cc4c(N5CCC(F)(F)C5)nc(OC[C@@]56CCCN5C[C@H](F)C6)nc4c3F)c12`
< 100 nM

Next entry: `N#Cc1c(N)sc2c(F)ccc(-c3c(C(F)(F)F)cc4c(N5C6CCC5COC6)nc(OC[C@@]56CCCN5C[C@H](F)C6)nc4c3F)c12`
< 100 nM

Next entry: `CN1C[C@H](N(C)c2nc(OC[C@@]34CCCN3C[C@H](F)C4)nc3c(F)c(-c4ccc(F)c5sc(N)c(C#N)c45)c(C(F)(F)F)cc23)CCC1=O`
< 100 nM

Next entry: CC(=O)N1CCC2[C@H]1CCCN2c1nc(OC[C@@]23CCCN2C[C@H](F)C3)nc2c(F)c(-c3ccc(F)c4sc(N)c(C#N)c34)c(C(F)(F)F)cc12 (some centres unmarked)
< 100 nM

Next entry: `CCC(=O)N1CC[C@H](N(CC)c2nc(OC[C@@]34CCCN3C[C@H](F)C4)nc3c(F)c(-c4ccc(F)c5sc(N)c(C#N)c45)c(C(F)(F)F)cc23)C1`
< 100 nM

----------
- subject of test: Avi-KRAS G12V (2-169) GTP/RAF1 RBD-3xFLAG (51-131) (Homo sapiens, UniProt P01116, G12V)
- Construct: Avi-KRAS G12V (2-169)
- Sequence (P01116 2-169 isoform P01116-2 G12V): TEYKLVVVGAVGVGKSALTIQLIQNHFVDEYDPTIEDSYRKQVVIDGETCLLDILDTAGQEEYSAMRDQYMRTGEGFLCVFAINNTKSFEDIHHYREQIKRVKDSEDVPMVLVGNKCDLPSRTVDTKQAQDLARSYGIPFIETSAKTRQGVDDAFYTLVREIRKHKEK
- method: Raf1-KRAS G12V-GTP disruption HTRF assay (Biological Example 3)
- Assay type: binding
- conditions used: KRAS G12V, GTP-loaded
pIC50: −log10 of the molar value.
Here, each record is paired with measured pIC50 data.

>>> result("COC(=O)N1CC[C@H](N(CCF)c2nc(OC[C@@]34CCCN3C[C@H](F)C4)nc3c(F)c(-c4ccc(F)c5sc(N)c(C#N)c45)c(C(F)(F)F)cc23)C1 (atropisomer, axis not shown)")
"6.00 to 7.00"
>>> result("CCN(c1nc(OC[C@@]23CCCN2C[C@H](F)C3)nc2c(F)c(-c3ccc(F)c4sc(N)c(C#N)c34)c(C(F)(F)F)cc12)[C@H]1C[C@H](COC)N(C(=O)C2CC2(F)F)C1 (stereo partly shown)")
"6.00 to 7.00"

What value of pIC50 has been recorded for this entry: CCN(c1nc(OC[C@@]23CCCN2C[C@H](F)C3)nc2c(F)c(-c3ccc(F)c4sc(N)c(C#N)c34)c(C(F)(F)F)cc12)[C@H]1CCN(C(=O)N2CCN(C(C)=O)CC2)C1 (atropisomer, axis not shown)
6.00 to 7.00

Next entry: CCN(c1nc(OC[C@@]23CCCN2C[C@H](F)C3)nc2c(F)c(-c3ccc(F)c4sc(N)c(C#N)c34)c(C(F)(F)F)cc12)[C@H]1CCN(C(=O)O[C@@H]2CCOC2)C1 (atropisomer, axis not shown)
≥ 7.00

----------
- subject of test: Avi-KRAS WT (1-169) GppNHp/RAF1 RBD-3xFLAG (52-151) (Homo sapiens)
- Construct: Avi-KRAS WT (1-169)
- Sequence (P01116 1-169 isoform P01116-2): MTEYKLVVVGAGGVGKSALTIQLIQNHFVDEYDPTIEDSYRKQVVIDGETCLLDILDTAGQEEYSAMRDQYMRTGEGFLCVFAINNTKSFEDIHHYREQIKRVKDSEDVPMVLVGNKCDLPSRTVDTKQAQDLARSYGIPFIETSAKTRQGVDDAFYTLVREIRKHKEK
- method: Raf1-KRAS WT-GppNHP disruption HTRF assay (Biological Example 1)
- Assay type: binding
- conditions used: KRAS WT, GppNHp-loaded; class symbols
pIC50: −log10 of the molar value.
endpoint: pIC50

>>> result("C=C(C)C(=O)N1CC[C@H](N(CC)c2nc(OC[C@@]34CCCN3C[C@H](F)C4)nc3c(F)c(-c4ccc(F)c5sc(N)c(C#N)c45)c(C(F)(F)F)cc23)C1 (atropisomer, axis not shown)")
"> 7.00"
>>> result("CCN(c1nc(OC[C@@]23CCCN2C[C@H](F)C3)nc2c(F)c(-c3ccc(F)c4sc(N)c(C#N)c34)c(C(F)(F)F)cc12)[C@H]1CCN(C(=O)c2cnsc2)C1 (atropisomer, axis not shown)")
"> 7.00"
>>> result("CC1c2cc(C(=O)N(C)C)nn2CCN1c1nc(OCC23CCCN2CC(F)C3)nc2c(F)c(-c3ccc(F)c4sc(N)c(C#N)c34)c(C(F)(F)F)cc12 (centres unmarked) [Compound 701]")
"< 5.00"

What value of pIC50 has been recorded for this entry: CCN(c1nc(OC[C@@]23CCCN2C[C@H](F)C3)nc2c(F)c(-c3ccc(F)c4sc(N)c(C#N)c34)c(C(F)(F)F)cc12)[C@H]1CCN(C(=O)c2ccns2)C1 (atropisomer, axis not shown)
> 7.00

Next entry: CCN(c1nc(OC[C@@]23CCCN2C[C@H](F)C3)nc2c(F)c(-c3ccc(F)c4sc(N)c(C#N)c34)c(C(F)(F)F)cc12)[C@H]1C[C@H](C)N(C(=O)N2CC(OC)C2)C1 (atropisomer, axis not shown)
> 7.00

----------
Here, each record is paired with measured IC50 data.
- subject of test: Avi-KRAS G12R (1-169) GppNHp/RAF1 RBD-3xFLAG (52-151) (Homo sapiens, UniProt P01116, G12R)
- Construct: Avi-KRAS G12R (1-169)
- Sequence (P01116 1-169 isoform P01116-2 G12R): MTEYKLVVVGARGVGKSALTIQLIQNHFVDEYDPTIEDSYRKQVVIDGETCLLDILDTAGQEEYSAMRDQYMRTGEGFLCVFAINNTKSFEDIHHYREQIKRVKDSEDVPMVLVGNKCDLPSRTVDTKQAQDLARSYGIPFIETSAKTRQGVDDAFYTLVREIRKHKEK
- method: Raf1-KRAS G12R-GppNHP disruption HTRF assay (Biological Example 1)
- Type: binding
- conditions used: KRAS G12R, GppNHp-loaded; Table 11

Solved cases below.
>>> result("CC(=O)N1CC[C@H](N(C)c2nc(OC[C@@]34CCCN3C[C@H](F)C4)nc3c(F)c(-c4ccc(F)c5sc(N)c(C#N)c45)c(C(F)(F)F)cc23)[C@@H]1C (single isomer, unassigned) [Compound 195]")
"1000 to 10000 nM"
>>> result("CC(=O)N1CC[C@H](N(C)c2nc(OC[C@@H]3CC4(CC4)CN3C)nc3c(F)c(-c4ccc(F)c5sc(N)c(C#N)c45)c(C(F)(F)F)cc23)[C@@H]1C")
"> 10000 nM"
>>> result("CN(c1nc(OC[C@@]23CCCN2C[C@H](F)C3)nc2c(F)c(-c3ccc(F)c4sc(N)c(C#N)c34)c(C(F)(F)F)cc12)[C@]1(CC#N)C[C@@H](O)C1 (atropisomer, axis not shown)")
"1000 to 10000 nM"
>>> result("N#Cc1c(N)sc2c(F)ccc(-c3c(C(F)(F)F)cc4c(N5CCNC(=O)CC5)nc(OC[C@@]56CCCN5C[C@H](F)C6)nc4c3F)c12")
"100 to 1000 nM"

Now look at this entry.
What reported IC50 corresponds to `CN(c1nc(OC[C@@]23CCCN2C[C@H](F)C3)nc2c(C#N)c(-c3ccc(F)c4sc(N)c(C#N)c34)c(Cl)cc12)[C@H]1C[C@@H](O)C1` on Avi-KRAS G12R (1-169) GppNHp/RAF1 RBD-3xFLAG (52-151) (Homo sapiens, UniProt P01116, G12R)?
100 to 1000 nM

----------
- Tested on: SW620 cells (KRAS G12V)
- method: Cell-based pERK HTRF assay in SW620 cell (Biological Example 4)
- conditions used: Homo sapiens, SW-620, SW620 (KRAS G12V) cells
endpoint: IC50

>>> result("CCN(c1nc(OC[C@@]23CCCN2C[C@H](F)C3)nc2c(F)c(-c3ccc(F)c4sc(N)c(C#N)c34)c(C(F)(F)F)cc12)[C@H]1CCN(C(=O)c2coc(C)n2)[C@@H]1C (atropisomer, axis not shown)")
"< 100 nM"
>>> result("CCN(c1nc(OC[C@@]23CCCN2C[C@H](F)C3)nc2c(F)c(-c3ccc(F)c4sc(N)c(C#N)c34)c(C(F)(F)F)cc12)[C@H]1C[C@H](COC)N(C(=O)[C@H]2C[C@H]2F)C1 (atropisomer, axis not shown)")
"< 100 nM"
>>> result("CCN(c1nc(OC[C@@]23CCCN2C[C@H](F)C3)nc2c(F)c(-c3ccc(F)c4sc(N)c(C#N)c34)c(C(F)(F)F)cc12)[C@@H]1CCN(C(=O)C(C)C)C1")
"< 100 nM"
>>> result("CCN(c1nc(OC[C@@]23CCCN2C[C@H](F)C3)nc2c(F)c(-c3ccc(F)c4sc(N)c(C#N)c34)c(C(F)(F)F)cc12)[C@@H]1C[C@H](C)N(C(C)=O)C1 (atropisomer, axis not shown)")
"< 100 nM"
>>> result("CCN(c1nc(OC[C@@]23CCCN2C[C@H](F)C3)nc2c(F)c(-c3ccc(F)c4sc(N)c(C#N)c34)c(C(F)(F)F)cc12)[C@@H]1CCN2C(=O)OC[C@H]12 (atropisomer, axis not shown)")
"< 100 nM"
>>> result("CCN(c1nc(OCC23CCCN2CC(F)C3)nc2c(F)c(-c3ccc(F)c4sc(N)c(C#N)c34)c(C(F)(F)F)cc12)C1CCN(C(=O)c2ncns2)C1 (stereo not drawn)")
"< 100 nM"

What value of IC50 has been recorded for this entry: CCN(c1nc(OC[C@@]23CCCN2C[C@H](F)C3)nc2c(F)c(-c3ccc(F)c4sc(N)c(C#N)c34)c(C(F)(F)F)cc12)[C@H]1C[C@@H]2CN(C)C(=O)N2C1 (atropisomer, axis not shown)
< 100 nM

Next entry: CCN(c1nc(OC[C@@]23CCCN2C[C@H](F)C3)nc2c(F)c(-c3ccc(F)c4sc(N)c(C#N)c34)c(C(F)(F)F)cc12)[C@H]1C[C@H]2[C@H](C)N(C)C(=O)N2C1 (atropisomer, axis not shown)
< 100 nM

Next entry: CCN(c1nc(OC[C@@]23CCCN2C[C@H](F)C3)nc2c(F)c(-c3ccc(F)c4sc(N)c(C#N)c34)c(C(F)(F)F)cc12)[C@H]1CC[C@](C)(C(=O)N(C)C)C1 (atropisomer, axis not shown)
< 100 nM
